Tested on: P-gp (MDR1)
Assay: MDR1-MDCK permeability / P-gp efflux assay
Settings: MDCK-MDR1, pH 7.4
Overview of reported efflux ratio at 60 min, 10 μM across a group of compounds:
Form: value (number only, do not type unit).

- SMILES INPUT: "C[C@@H]1C[C@H]2[C@@H]3CCC4=CC(=O)C=C[C@]4(C)C3=CC[C@]2(C)[C@@]1(O)C(=O)CO"
  efflux ratio at 60 min, 10 μM: 6.42

Turning now to a further compound:
Would you kindly share the measured efflux ratio at 60 min, 10 μM for CC(=O)OCC(=O)[C@@]12N=C(C)O[C@@H]1C[C@H]1[C@@H]3CCC4=CC(=O)C=C[C@]4(C)[C@H]3[C@@H](O)C[C@@]12C ?
58.4
